# Test system: Escherichia coli TOP10
# experiment: shrunken log2 fold change of peptide-encoding DNA abundance (4.5 h post-induction vs induction); higher = less antimicrobial activity (less host growth inhibition)
# experimental context: time post-induction: 4.5 h; library: site-saturation at positions 5, 18, 19, 20
measured parameter: shrunken log2 fold change
Answers are plain numbers.

Completed entries (count: 8):
RRIRYRPPRLPRPRPRPELWPRP; 0.13
RRIRGRPPRLPRPRPRPPQFPRP; 0.676
RRIRNRPPRLPRPRPRPLACPRP; 0.118
RRIRYRPPRLPRPRPRPDDWPRP; -0.437
RRIRQRPPRLPRPRPRPAVVPRP; 0.242
RRIRRRPPRLPRPRPRPMGHPRP; 0.129
RRIRIRPPRLPRPRPRPCGRPRP; 0.0552
RRIRFRPPRLPRPRPRPKGYPRP; 0.00663

Record shrunken log2 fold change per entry; entries follow.
1. RRIRNRPPRLPRPRPRPITYPRP
2. RRIRQRPPRLPRPRPRPMLGPRP

Output line:
[-1.09, 0.0371]

* * *

# Test system: Escherichia coli TOP10
# experiment: shrunken log2 fold change of peptide-encoding DNA abundance (4.5 h post-induction vs induction); higher = less antimicrobial activity (less host growth inhibition)
# experimental context: time post-induction: 4.5 h; library: site-saturation at positions 5, 18, 19, 20
measured parameter: shrunken log2 fold change

RRIRIRPPRLPRPRPRPYCKPRP; -0.592
RRIRARPPRLPRPRPRPWDNPRP; 0.0421

Let us move to another entry and its shrunken log2 fold change.
Input line: What does the data say about its shrunken log2 fold change? Entry: RRIRWRPPRLPRPRPRPWVQPRP
Output line: 0.128

* * *

# Tested on: Escherichia coli TOP10;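 further: peptides expressed intracellularly from a pBAD plasmid library in pooled LB shake-flask culture, induced with 0.3% L-arabinose, DNA abundance read by NGS, three biological replicates, DESeq2 with apeglm shrinkage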
# experiment: shrunken log2 fold change of peptide-encoding DNA abundance (4.5 h post-induction vs induction); higher = less antimicrobial activity (less host growth inhibition)
# experimental context: time post-induction: 4.5 h; library: site-saturation at positions 5, 18, 19, 20
measured parameter: shrunken log2 fold change
One number for each entry.

Completed entries (count: 5):
RRIRSRPPRLPRPRPRPEVDPRP; 0.51
RRIRCRPPRLPRPRPRPWVQPRP; -0.391
RRIRPRPPRLPRPRPRPLPRPRP; 0.443
RRIRGRPPRLPRPRPRPEQMPRP; 0.152
RRIRERPPRLPRPRPRPPMNPRP; -0.82

Record shrunken log2 fold change per entry; entries follow.
1. RRIRWRPPRLPRPRPRPEMLPRP
2. RRIRARPPRLPRPRPRPITQPRP
3. RRIRARPPRLPRPRPRPDIWPRP
4. RRIRNRPPRLPRPRPRPWIWPRP
5. RRIRPRPPRLPRPRPRPLFAPRP

Output line:
1.17
-0.0161
0.69
-0.151
0.206

Record shrunken log2 fold change per entry; entries follow.
1. RRIRNRPPRLPRPRPRPFTQPRP
2. RRIRPRPPRLPRPRPRPRASPRP
3. RRIRDRPPRLPRPRPRPRATPRP

Output line:
-0.348
0.548
0.614

Record shrunken log2 fold change per entry; entries follow.
1. RRIRARPPRLPRPRPRPTYPPRP
2. RRIRKRPPRLPRPRPRPPASPRP
3. RRIRWRPPRLPRPRPRPKIWPRP

Output line:
1. -0.0587
2. 0.424
3. 0.272
